# TEST_NAME: physchem
# EXPERIMENTAL_PARAMETERS: pH 5.4, Solubility Conc.
Positions of bridges follow the written chain, without caps; N, C: chain ends. Non-standard residues stand in square brackets, D forms with d. Residues, ends and D or L forms follow the SMILES beside them. Groups on a side chain read outwards from the residue. *: point of attachment. Lys(CH2CO2H)2 = N[C@@H](CCCCN(CC(=O)O)CC(=O)O)C(=O)O; C16 diacid = O=C(O)CCCCCCCCCCCCCCC(=O)*; hCys = N[C@@H](CCS)C(=O)O; AEEA = NCCOCCOCC(=O)O
MEASURED_METRIC: solubility (µM)
Numbers only, in µM.

Lookup: Need solubility, item CC(=O)N[C@H]1CCSSC[C@@H](C(=O)N[C@@H](CO)C(=O)N2CCC[C@H]2C(=O)N[C@@H](CCCCN)C(=O)N[C@@H](CCC(=O)O)C(=O)N[C@@H](CCCCN(CC(=O)O)CC(=O)O)C(=O)N[C@@H](CCCCNC(=O)COCCOCCNC(=O)CCCCCCCCCCCCCCC(=O)O)C(N)=O)NC(=O)[C@H](Cc2c[nH]c3ccccc23)NC(=O)[C@H](CCCNC(=N)N)NC(=O)[C@@H](Cc2ccccc2)NC(=O)[C@H](Cc2c[nH]cn2)NC1=O [Example 60] (Ac-[hCys]H[dF]RWCSPKE[Lys(CH2CO2H)2]K([AEEA-C16 diacid])-NH2; disulfide 1-6)
Found: 126

----------
# TEST_NAME: physchem
# EXPERIMENTAL_PARAMETERS: pH 6.9, Solubility Conc.
Positions of bridges follow the written chain, without caps; N, C: chain ends. Non-standard residues stand in square brackets, D forms with d. Residues, ends and D or L forms follow the SMILES beside them. Groups on a side chain read outwards from the residue. *: point of attachment. Lys(CH2CO2H)2 = N[C@@H](CCCCN(CC(=O)O)CC(=O)O)C(=O)O; C17 diacid = O=C(O)CCCCCCCCCCCCCCCC(=O)*; C16 diacid = O=C(O)CCCCCCCCCCCCCCC(=O)*; AEEA = NCCOCCOCC(=O)O
Can you tell me solubility for the items I'm about to list?
One number for each entry, in µM.

COMPOUND: CC(=O)N[C@H]1CCCCNC(=O)CC[C@@H](C(=O)N2CCC[C@H]2C(=O)N2CCC[C@H]2C(=O)N[C@@H](Cc2c[nH]cn2)C(=O)N[C@@H](CCC(=O)O)C(=O)N[C@@H](CCCCN(CC(=O)O)CC(=O)O)C(=O)N[C@@H](CCCCNC(=O)COCCOCCNC(=O)CCCCCCCCCCCCCCCC(=O)O)C(N)=O)NC(=O)[C@H](Cc2c[nH]c3ccccc23)NC(=O)[C@H](CCCNC(=N)N)NC(=O)[C@@H](Cc2ccccc2)NC(=O)[C@H](Cc2c[nH]cn2)NC1=O [Example 7] (Ac-KH[dF]RWEPPHE[Lys(CH2CO2H)2]K([AEEA-C17 diacid])-NH2; lactam 1-6)
UNIT_DESCRIPTOR: µM
solubility: 434

Lookup: Need solubility, item CC(=O)N[C@H]1CSSC[C@@H](C(=O)N2CCC[C@H]2C(=O)N2CCC[C@H]2C(=O)N[C@@H](CCCCN)C(=O)N[C@@H](CCC(=O)O)C(=O)N[C@@H](CCC(=O)O)C(=O)N[C@@H](CCCCNC(=O)COCCOCCNC(=O)CCCCCCCCCCCCCCC(=O)O)C(N)=O)NC(=O)CNC(=O)[C@H](Cc2c[nH]c3ccccc23)NC(=O)[C@H](CCCNC(=N)N)NC(=O)[C@@H](Cc2ccccc2)NC(=O)[C@H](Cc2c[nH]cn2)NC(=O)[C@H](CCC(=O)O)NC1=O [Example 68] (Ac-CEH[dF]RWGCPPKEEK([AEEA-C16 diacid])-NH2; disulfide 1-8)
Found: 182

Just for reference, patent US20130012432A1 is where these values come from.
